This collection of values is drawn from patent US20150093336A1.

pKd for assorted binders
Target: T1, Recombinant mouse MMR (R&D systems) (mouse, UniProt Q61830 20-1388)
T1 construct: Antigen of the PE-ELISA and the SPR; also called mMMR; recombinant mMMR
T1 sequence: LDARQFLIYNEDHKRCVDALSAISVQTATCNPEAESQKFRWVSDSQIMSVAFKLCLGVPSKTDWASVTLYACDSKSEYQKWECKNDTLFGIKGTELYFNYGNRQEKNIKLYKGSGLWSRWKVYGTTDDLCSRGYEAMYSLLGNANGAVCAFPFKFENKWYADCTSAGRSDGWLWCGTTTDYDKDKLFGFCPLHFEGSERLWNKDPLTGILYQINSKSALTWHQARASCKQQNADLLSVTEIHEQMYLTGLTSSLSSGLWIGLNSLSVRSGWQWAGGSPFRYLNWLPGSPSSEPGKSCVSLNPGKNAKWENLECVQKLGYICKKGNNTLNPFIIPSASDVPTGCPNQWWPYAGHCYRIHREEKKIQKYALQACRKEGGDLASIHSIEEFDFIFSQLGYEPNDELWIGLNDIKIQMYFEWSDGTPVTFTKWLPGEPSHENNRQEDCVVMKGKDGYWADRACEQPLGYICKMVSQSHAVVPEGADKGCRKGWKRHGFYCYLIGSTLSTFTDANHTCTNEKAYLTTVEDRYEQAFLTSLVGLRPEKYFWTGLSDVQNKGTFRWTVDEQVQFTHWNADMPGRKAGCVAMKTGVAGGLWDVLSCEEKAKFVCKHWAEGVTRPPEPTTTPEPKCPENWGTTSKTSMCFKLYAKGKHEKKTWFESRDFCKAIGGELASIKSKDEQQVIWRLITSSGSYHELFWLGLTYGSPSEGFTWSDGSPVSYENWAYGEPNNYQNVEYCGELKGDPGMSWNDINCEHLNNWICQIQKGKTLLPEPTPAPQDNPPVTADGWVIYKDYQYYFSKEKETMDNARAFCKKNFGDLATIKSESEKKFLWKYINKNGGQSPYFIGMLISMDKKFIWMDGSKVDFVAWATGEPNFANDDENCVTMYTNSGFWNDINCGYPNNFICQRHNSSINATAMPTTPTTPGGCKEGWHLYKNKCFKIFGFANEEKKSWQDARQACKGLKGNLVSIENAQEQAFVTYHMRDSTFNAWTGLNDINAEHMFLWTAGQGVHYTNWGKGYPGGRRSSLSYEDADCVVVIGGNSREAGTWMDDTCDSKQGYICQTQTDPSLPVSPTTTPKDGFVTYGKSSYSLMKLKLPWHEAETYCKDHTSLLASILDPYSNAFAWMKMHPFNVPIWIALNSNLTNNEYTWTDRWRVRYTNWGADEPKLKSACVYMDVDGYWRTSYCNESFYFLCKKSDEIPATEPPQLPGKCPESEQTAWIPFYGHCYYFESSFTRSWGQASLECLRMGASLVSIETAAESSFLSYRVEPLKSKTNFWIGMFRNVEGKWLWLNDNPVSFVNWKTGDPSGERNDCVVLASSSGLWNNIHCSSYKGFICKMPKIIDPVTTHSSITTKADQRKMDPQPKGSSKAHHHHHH
Experiment: SPR, BIAcore T100; mouse MMR on CM5 chip, sdAb as analyte
Scale note: pKd = -log10(concentration in M).

Answered examples (2):
>  <binder>
NbhmMMRm24.31 (VHH, Produced from pMECS with C-terminal HA and 6xHis tag) VHH: QVQLQESGGGLVQPGGSLRLSCTATGFTLKNHHIGWLRQAPGKEREGVASINSSGGSTNYADSVQGRFTISRDNAKNTVFLQMNSLKSEDTAVYYCARLRRYYGLNLDPGSYDYWGQGTQVTVSS

>  <pKd>
7.13

$$$$
>  <binder>
NbhmMMRm20.52 (VHH, Produced from pMECS with C-terminal HA and 6xHis tag) VHH: QVQLQESGGGLVQAGGSLRLSCAASGRIFSAYAMGWFRQAPGKEREFVAAISRSGDSTDYADSVKGRFTISRDSAKNMVYLQMNSLKPEDTALYHCAARTVSAPPSAAWGYGYWGQGTQVTVSS

>  <pKd>
8.89

$$$$

Kindly consider the entry below.
Task: Any idea what its pKd is? The binder is NbhMMRm15.43 (VHH, Produced from pMECS with C-terminal HA and 6xHis tag) VHH: QVQLQESGGTLVQPGGSLRLSCAASGSTFSINNMGWYRQAPGKQRELVAGITGGNTHYADSVKGRFTISRDNAKNTMYLQMNGLKPEDTAVYYCNANWGAYWGQGTQVTVSS
Result: 7.36
